Data credit: patent US9982005B2

Tested on: EC882 E. coli imp
assay_remarks: broth dilution MIC, E. coli EC882
Assay type: cell-based
test_parameters: Escherichia coli
measurement_name: MIC (µg/mL)
Numbers only, in µg/mL.

CCC[C@@H]1C[C@@H](C(=O)N[C@@H]([C@H]2O[C@H](SC)[C@H](O)[C@@H](O)[C@H]2O)[C@H](C)Cl)N(C)C1 [Clindamycin, clindamycin, reference compound]: 2

Okay, here is my list. What is MIC for each of these?
1. CC[C@H]1OC(=O)[C@H](C)C(=O)[C@H](C)[C@@H](O[C@@H]2OC(C)CC(N(C)C)C2O)[C@](C)(OC)C[C@@H](C)CN[C@H](C)[C@H]2N(CCCCn3cc(-c4cccc(N)n4)nn3)C(=O)O[C@]12C (stereo partly shown) [FSM-20715]
2. CC[C@H]1OC(=O)[C@H](C)C(=O)[C@H](C)[C@@H](O[C@@H]2OC(C)CC(N(C)C)C2O)[C@](C)(OC)C[C@@H](C)CN[C@H](C)[C@H]2N(CCCCn3cc(-c4nc5ccccc5s4)nn3)C(=O)O[C@]12C (stereo partly shown) [FSM-20711]

1: 0.0312; 2: 0.0312

###

Tested on: BS1725 B. subtilis ermC
assay_remarks: broth dilution MIC, B. subtilis BS1725
Format: cell-based
test_parameters: Bacillus subtilis, BS1725 B. subtilis ermC (−ery)
measurement_name: MIC

CC[C@H]1OC(=O)[C@](C)(F)C(=O)C[C@@H](O[C@@H]2OC(C)CC(N(C)C)C2O)[C@](C)(OC)C[C@@H](C)CN[C@H](C)[C@H]2N(CCCCn3cc(-c4cccc(N)c4)nn3)C(=O)O[C@]12C (some centres unmarked) [FSM-10661]: > 32 µg/mL
CC[C@H]1OC(=O)[C@H](C)C(=O)C[C@@H](O[C@@H]2OC(C)CC(N(C)C)C2O)[C@](C)(OC)C[C@@H](C)CN[C@H](C)[C@H]2N(CCCCn3cc(-c4cccnn4)nn3)C(=O)O[C@]12C (some centres unmarked) [FSM-10785]: > 32 µg/mL
CC[C@H]1OC(=O)[C@H](C)C(=O)C[C@@H](O[C@@H]2OC(C)CC(N(C)C)C2O)[C@](C)(OC)C[C@@H](C)CN[C@H](C)[C@H]2N(CCCCn3cc(-c4nc5ccccc5s4)nn3)C(=O)O[C@]12C (some centres unmarked) [FSM-10788]: > 32 µg/mL
CC[C@H]1OC(=O)[C@H](C)[C@@H](O[C@H]2C[C@@](C)(OC)[C@@H](O)[C@H](C)O2)[C@H](C)[C@@H](O[C@@H]2O[C@H](C)C[C@H](N(C)C)[C@H]2O)[C@](C)(O)C[C@@H](C)CN(C)[C@H](C)[C@@H](O)[C@]1(C)O [Azithromycin, reference compound]: > 32 µg/mL
CC[C@H]1OC(=O)[C@H](C)C(=O)C[C@@H](O[C@@H]2OC(C)CC(N(C)C)C2O)[C@@](C)(OC)C[C@@H](C)CN[C@H](C)[C@H]2N(CCCCn3cc(-c4cccnn4)nn3)C(=O)O[C@]12C (some centres unmarked) [FSM-30506]: > 32 µg/mL

Okay, here is my list. What is MIC for each of these?
1. CC[C@H]1OC(=O)[C@H](C)C(=O)C[C@@H](O[C@@H]2OC(C)CC(N(C)C)C2O)[C@@](C)(OC)C[C@@H](C)CN(C(C)=O)[C@H](C)[C@H]2N(CCCCn3cc(-c4cccc(N)c4)nn3)C(=O)O[C@]12C (some centres unmarked) [FSM-30512]
2. CC[C@H]1OC(=O)[C@H](C)C(=O)C[C@@H](O[C@@H]2OC(C)CC(N(C)C)C2O)[C@@](C)(OC)C[C@@H](C)CN[C@H](C)[C@H]2N(CCCCn3cc(-c4nccs4)nn3)C(=O)O[C@]12C (some centres unmarked) [FSM-30501]

1. > 32 µg/mL
2. > 32 µg/mL

###

Tested on: EC878 E. coli tolC
assay_remarks: broth dilution MIC, E. coli EC878
Assay type: cell-based
test_parameters: Escherichia coli
Source text: We have collected MIC data for a total of 50 novel macrolides that this platform has produced against over 21 unique strains of B. subtilis, E. coli, S. aureus, S. pneumoniae, and H. influenzae, including several multidrug-resistant strains, with a special focus on macrolide resistant mechanisms (vide supra). Azithromycin was included as a control macrolide. CLSI standard procedures for broth dilution MIC determination were used. […] These genotypes can be constitutive or inducible. […]
measurement_name: MIC (mg/L)
Answers are plain numbers, in mg/L.

Examples with their reported MIC follow.
CC[C@H]1OC(=O)[C@H](C)C(=O)C[C@@H](O[C@@H]2OC(C)CC(N(C)C)C2O)[C@](C)(OC)C[C@@H](C)CN(C(C)=O)[C@H](C)[C@H]2N(CCCCn3cc(-c4nccs4)nn3)C(=O)O[C@]12C (some centres unmarked) [FSM-10790]: 4
CC[C@H]1OC(=O)[C@H](C)C(=O)[C@H](C)[C@@H](O[C@@H]2OC(C)CC(N(C)C)C2O)[C@](C)(OC)C[C@@H](C)CN[C@H](C)[C@H]2N(CCCCn3cc(-c4cccc(N)c4)nn3)C(=O)O[C@]12C (some centres unmarked) [FSM-20707]: 0.5
CC[C@H]1OC(=O)C(C)(F)C(=O)[C@@H](C)[C@@H](O[C@@H]2OC(C)CC(N(C)C)C2O)[C@](C)(OC)C[C@@H](C)CN[C@H](C)[C@H]2N(CCCCn3cc(-c4cccc(N)c4)nn3)C(=O)O[C@]12C (some centres unmarked) [FSM-20720]: 1
CC[C@H]1OC(=O)[C@H](C)C(=O)[C@H](C)[C@@H](O[C@@H]2OC(C)CC(N(C)C)C2O)[C@](C)(OC)C[C@@H](C)CN[C@H](C)[C@H]2N(CCCCn3cc(-c4nc5ccccc5s4)nn3)C(=O)O[C@]12C (some centres unmarked) [FSM-20711]: 0.5
CC[C@H]1OC(=O)[C@](C)(F)C(=O)C[C@@H](O[C@@H]2OC(C)CC(N(C)C)C2O)[C@](C)(OC)C[C@@H](C)CN[C@H](C)[C@H]2N(CCCCn3cc(-c4cccnn4)nn3)C(=O)O[C@]12C (some centres unmarked) [FSM-10667]: 16

Okay, here is my list. What is MIC for each of these?
1. CC[C@H]1OC(=O)[C@](C)(F)C(=O)C[C@@H](O[C@@H]2OC(C)CC(N(C)C)C2O)[C@](C)(OC)C[C@@H](C)CN[C@H](C)[C@H]2N(CCCCn3cc(-c4nccs4)nn3)C(=O)O[C@]12C (some centres unmarked) [FSM-10666]
2. CC[C@H]1OC(=O)C(C)(F)C(=O)[C@@H](C)[C@@H](O[C@@H]2OC(C)CC(N(C)C)C2O)[C@](C)(OC)C[C@@H](C)CN[C@H](C)[C@H]2N(CCCCn3cc(-c4nc5ccccc5s4)nn3)C(=O)O[C@]12C (some centres unmarked) [FSM-20722]
3. CC[C@H]1OC(=O)C(C)(F)C(=O)[C@@H](C)[C@@H](O[C@@H]2OC(C)CC(N(C)C)C2O)[C@](C)(OC)C[C@@H](C)CN[C@H](C)[C@H]2N(CCCCn3cc(-c4cccc(N)n4)nn3)C(=O)O[C@]12C (some centres unmarked) [FSM-20718]
4. CC[C@H]1OC(=O)[C@H](C)C(=O)[C@H](C)[C@@H](O[C@@H]2OC(C)CC(N(C)C)C2O)[C@](C)(OC)C[C@@H](C)CN[C@H](C)[C@H]2N(CCCCn3cc(-c4cccc(N)n4)nn3)C(=O)O[C@]12C (some centres unmarked) [FSM-20715]

1: 16; 2: 1; 3: 1; 4: 0.5

Okay, here is my list. What is MIC for each of these?
1. CC[C@H]1OC(=O)[C@](C)(F)C(=O)C[C@@H](O[C@@H]2OC(C)CC(N(C)C)C2O)[C@](C)(OC)C[C@@H](C)CN[C@H](C)[C@H]2N(CCCCn3cc(-c4ccccn4)nn3)C(=O)O[C@]12C (some centres unmarked) [FSM-10662]
2. CC[C@H]1OC(=O)C(C)(F)C(=O)[C@@H](C)[C@@H](O[C@@H]2OC(C)CC(N(C)C)C2O)[C@](C)(OC)C[C@@H](C)CN[C@H](C)[C@H]2N(CCCCn3cc(-c4ccccn4)nn3)C(=O)O[C@]12C (some centres unmarked) [FSM-20716]
3. CC[C@H]1OC(=O)[C@H](C)C(=O)C[C@@H](O[C@@H]2OC(C)CC(N(C)C)C2O)[C@](C)(OC)C[C@@H](C)CN(C(C)=O)[C@H](C)[C@H]2N(CCCCn3cc(-c4cccnn4)nn3)C(=O)O[C@]12C (some centres unmarked) [FSM-10794]

1: 16; 2: 1; 3: 8

Any idea what its MIC is? The molecule is CC[C@H]1OC(=O)C(C)C(=O)[C@@H](C)[C@@H](O[C@@H]2OC(C)CC(N(C)C)C2O)[C@](C)(OC)C[C@@H](C)CN[C@H](C)[C@H]2N(CCCCn3cc(-c4ccccn4)nn3)C(=O)O[C@]12C (some centres unmarked) [FSM-20754] 0.5
